These measurements were taken from paper PMC9645637.

For each entry below, report its LC50 value.
Tested on: An. gambiae (COGS) larvae
Assay procedure: Larvicidal assay (WHO bioassay for mosquito larvicides)
Applied conditions: Anopheles gambiae, read-out: Larvicidal LC50 (95% confidence interval range)
Method: The laboratory-reared colonies of An. funestus (FUMOZ), An. arabiensis (KWAG), An. gambiae (COGS) and An. coluzzii (G3) were used for larvicidal and AChE screening assays. […] The incubation mixture was performed in a total volume of 250 mL of deionized water under 27°C and humidity ≥78%. The test compounds were dissolved in DMSO and assessed for larvicidal activity at 10 times increasing concentrations from 0.0005 μM to 500 μM. […]

Query string: Fill in the blank: the reported LC50 of "O=C(Nc1nccs1)C1CCN(Cc2ccccc2)CC1" is ____.
Result string: > 100 µM

Query string: Fill in the blank: the reported LC50 of CNC(=O)Oc1ccccc1OC(C)C [Propoxur, propoxur, reference compound] is ____.
Result string: 64 µM

Query string: Fill in the blank: the reported LC50 of "O=C(NCCN1CCCCC1)C1CCN(Cc2ccccc2)CC1" is ____.
Result string: > 100 µM

Query string: Fill in the blank: the reported LC50 of "COc1cc(CCNC(=O)C2CCN(Cc3ccccc3)CC2)cc(OC)c1OC" is ____.
Result string: > 100 µM

Query string: Fill in the blank: the reported LC50 of "O=C(NCCc1c[nH]cn1)C1CCN(Cc2ccccc2)CC1" is ____.
Result string: > 100 µM

Query string: Fill in the blank: the reported LC50 of "O=C(NCCN1CCOCC1)C1CCN(Cc2ccccc2)CC1" is ____.
Result string: > 100 µM

Query string: Fill in the blank: the reported LC50 of "O=C(NCc1cccnc1)C1CCN(Cc2ccccc2)CC1" is ____.
Result string: > 100 µM

Query string: Fill in the blank: the reported LC50 of "O=C(NCc1ccco1)C1CCN(Cc2ccccc2)CC1" is ____.
Result string: > 100 µM

Query string: Fill in the blank: the reported LC50 of O=C(NC1CCCc2ccccc21)C1CCN(Cc2ccccc2)CC1 (stereo not shown) is ____.
Result string: > 100 µM

Query string: Fill in the blank: the reported LC50 of "O=C(NCc1ccncc1)C1CCN(Cc2ccccc2)CC1" is ____.
Result string: > 100 µM
